test protocol: Plasma toxicokinetics after single gavage administration in mice
Format: in vivo, B6C3F1/N mice
assay conditions: female, B6C3F1/N, mouse, plasma, po, 34 mg/kg, K10 Half-Life, free BPAF; female mice; 34 mg/kg gavage; mean (SE)
measurement label: half-life (min)

> print(dat)
                              line.notation  measurement.label  units.text  value.observed
1  Oc1ccc(C(c2ccc(O)cc2)(C(F)(F)F)C(F)(F)F)cc1          half-life         min            79.8

====

test protocol: Plasma toxicokinetics after single intravenous administration in rats
Type: in vivo, Harlan Sprague Dawley rats
assay conditions: male, Hsd:Sprague Dawley SD, rat, iv, 34 mg/kg
measurement label: Cmax (µg/mL)

> print(dat)
                              line.notation  units.text  value.observed
1  Oc1ccc(C(c2ccc(O)cc2)(C(F)(F)F)C(F)(F)F)cc1       µg/mL            75.9
